Where these numbers come from: paper PMC11648681

Consider the following compounds; for each one, report its viability at 48 h, 31.25 μg/mL.
PROTOCOL_DETAILS: CCK-8 cell viability of THP-1 cells after 48 h compound treatment in HaCaT/THP-1 co-culture
Assay type: cell-based, human
SETTINGS: human, Cell viability
One number for each entry, in %.

Please give viability at 48 h, 31.25 μg/mL, item by item, for the list that follows.
1. Sc1nc2ccccc2s1 [2-mercaptobenzothiazole]
2. N#CCCC(Br)(C#N)CBr (stereo not drawn) [bromoml, 1,2-dibromo-2,4-dicyanobutane]
3. Oc1cccc(O)c1 [resorcinol, Resorcinol]
4. CC(C)(C)c1cc(O)ccc1O [THBQ, Tert-butylhydroquinone]

63.3
12
81.4
103

Could you report viability at 48 h, 31.25 μg/mL for every entry in the following list?
1. C=CCc1ccc(O)c(OC)c1 [eugenol, Eugenol]
2. OCC(O)CO [glycerol, Glycerol]

1. 89.2
2. 105
